Tested on: DeltatarO mutant
assay comment: S. aureus survival, RN4220 and DeltatarO strains – OD600, teichoic acid synthesis inhibitors, primary screen (AID 463173)
test parameters: S. aureus RN4220 wild type/DeltatarO growth, OD600, 18 h, hits give low values, screened at 18.75 µg/mL (by protocol)
In all, about 52,000 compounds went through this assay and about 4,300 (8.3%) were called active. This is one part of a sample in which actives are shown more often than they occur.
Entries are sorted into classes by survival as follows: class 0 (below 60%), class 1 (60% to below 90%), class 2 (90% or more)

                                    compound  assigned_category
 0  Cc1ccc(NC(=O)Nc2cc3c(cc2N2CCCCC2)n(C)c(=O)n3C)cc1Cl            class 2
 1  Cc1cc(C)c2c(=O)cc(C(=O)Nc3ccc(S(=O)(=O)Nc4nc(C)cc(C)n4)cc3)oc2c1            class 2
 2  CCOC(=O)c1[nH]c2ccccc2c1NC(=O)c1ccc(OC)c(OC)c1            class 2
 3  CCOc1ccc(-c2nn(CC(=O)NC3CCCC3)c3c2cnc2ccc(F)cc23)cc1            class 2
 4  CC(=O)c1ccc(N2CCN(C(=O)Nc3cn(CC(C)C)c(=O)c4ccccc34)CC2)cc1            class 1
 5  COc1ccc(-c2nn(CC(=O)NC3CCCC3)c3c2cnc2ccc(F)cc23)cc1            class 0
 6  COc1ccc(N2CCN(C(=O)c3ccc4c(c3)N(Cc3cccc(Cl)c3)C(=O)c3ccccc3S4(=O)=O)CC2)cc1            class 1
 7  Cc1ccccc1C(=O)Nc1nnc(S(=O)(=O)N2CCc3ccccc32)s1            class 2
 8  CCOC(=O)c1[nH]c2ccccc2c1NC(=O)c1ccccc1OCC            class 1
 9  Cc1cc(=O)n(CC(=O)NC(C)c2ccccc2)c2c1c(C)nn2C (stereo unspecified)            class 1
10  CCOC(=O)c1[nH]c2ccccc2c1NC(=O)c1cc(OCC)c(OCC)c(OCC)c1            class 2
11  Cc1cccc(NC(=O)c2cc3c(=O)n(Cc4ccco4)ccc3nc2C)c1            class 1
12  O=C(Cn1nc(-c2ccccc2)c2cnc3ccc(F)cc3c21)NC1CCCC1            class 2
13  CCc1ccc2oc(C(=O)NCC(c3ccc(OC)cc3)N3CCCCC3)c(C)c2c1 (stereo unspecified)            class 1
14  CCCS(=O)(=O)Nc1cc(-c2cn3ccc(C)cc3n2)ccc1C            class 1
15  CCOc1ccc(NC(=O)CSc2nc(-c3ccc(OC)cc3)nc3c2Cc2c(CO)cnc(C)c2O3)cc1            class 1
16  CC(Oc1ccc(Br)cc1)C(=O)N(Cc1nc(-c2ccccc2)no1)C(C)C (stereo unspecified)            class 2
17   CCOC(=O)c1[nH]c2ccccc2c1NC(=O)c1ccccc1F            class 0
18  CCCNC(=O)CN1C(=O)COc2ccc(S(=O)(=O)N3CCC(C)CC3)cc21            class 2
19  COC(=O)CN1C(=O)CSc2ccc(S(=O)(=O)Nc3cc(C)ccc3C)cc21            class 0
20  COc1cc(-c2noc(CSc3nc(-c4ccc(F)cc4)cc(=O)[nH]3)n2)cc(OC)c1OC            class 1
21  CCOC(=O)c1[nH]c2ccccc2c1NC(=O)c1ccccc1OC            class 0
22  CCc1ccc(NC(=O)Cn2c(=O)c3cc(Cl)ccc3n3nncc23)cc1            class 1
23  COc1ccccc1C(=O)N(Cc1nc(-c2cccc(C)c2)no1)C(C)C            class 1
24  O=C(NCc1ccc2c(c1)CCN2C(=O)c1ccc(F)cc1)c1c(F)cccc1F            class 1
25  COc1cccc(Cn2c(=O)n(Cc3ccccc3)c(=O)c3c2c2cc(OC)ccc2n3C)c1            class 1
26  O=C(Nc1nnc(S(=O)(=O)N2CCc3ccccc32)s1)c1ccccc1Cl            class 0
27  Cc1ccc(-n2c(=O)cc(N3CCN(c4ccccc4Cl)CC3)[nH]c2=O)cc1            class 0
28  Cc1cccc(-c2noc(CN(C(=O)COc3ccc(C(C)C)cc3)C(C)C)n2)c1            class 0
29  Cc1cccc(-c2noc(CN(C(=O)c3ccccc3Cl)C(C)C)n2)c1            class 1
30  O=C(NCCc1ccccc1)C(=O)NCC(c1cccnc1)N1CCN(c2ccc(F)cc2)CC1 (stereo unspecified)            class 2
31  CN(C)S(=O)(=O)n1cc(/C=C(\NC(=O)c2ccccc2)C(=O)NCCCn2ccnc2)c2ccccc21            class 2
32  COC(=O)CN1C(=O)CSc2ccc(S(=O)(=O)Nc3c(C)cc(C)cc3C)cc21            class 2
33  COC(=O)CN1C(=O)CSc2ccc(S(=O)(=O)Nc3cccc(C)c3C)cc21            class 1
34  CCc1ccccc1NC(=O)Nc1cc(C(=O)NCc2ccc(C)cc2)ccc1N1CCCC1            class 2
35  COC(=O)CN1C(=O)CSc2ccc(S(=O)(=O)Nc3cccc(Br)c3)cc21            class 0

----------
System: DeltatarO mutant
assay comment: S. aureus survival, RN4220 and DeltatarO strains – OD600, teichoic acid synthesis inhibitors, primary screen (AID 463173)
test parameters: S. aureus RN4220 wild type/DeltatarO growth, OD600, 18 h, hits give low values, screened at 18.75 µg/mL (by protocol)
Screen size: about 52,000 compounds; about 4,300 (8.3%) were called active. Many of the other results were omitted from the sample, so actives are more common in it than they were.
Parameter: survival. Scope: all listed entries.
readout type: survival (%)

>>> print(df.to_string())
                                    molecule  readout_number
 0        COc1nc(Nc2ccc(C)cc2)nc(NC2CCCC2)n1              81
 1  Cc1nn(CC(=O)NCc2ccc(N(C)C)cc2)c(=O)c2nn(-c3ccccc3)c(C)c12              83
 2  CC(C)(C)c1ccc(CSc2n[nH]c(=O)[nH]c2=O)cc1              98
 3  Cc1ccc(S(=O)(=O)c2nc(-c3cccc(Cl)c3)oc2NCc2ccccc2)cc1             168
 4  O=c1[nH]nc(SC(F)(F)C(F)(F)C(F)(F)F)c(=O)[nH]1              37
 5  COc1cc(C2CC(=O)c3c([nH]c(C(=O)OC4CCCC4)c3C)C2)cc(OC)c1OC (stereo unspecified)              51
 6            Cc1ccc(OC(=O)c2ccc3snnc3c2)cc1             115
 7  O=C(NCCN1CCOCC1)c1cnn2c(C(F)F)cc(-c3ccccc3)nc12              86
 8  Cc1noc(-c2ccc(-c3noc(-c4cccc(F)c4)n3)cc2)n1              76
 9     Cc1cc(NC(=O)c2ccc(NC(=O)C(C)C)cc2)no1              72
10           COc1c(Cl)cc(Cl)cc1CNCCSc1nnnn1C              74

----------
Below, each of the compounds is paired with its reported survival value.
Tested on: DeltatarO mutant
assay comment: S. aureus survival, RN4220 and DeltatarO strains – OD600, teichoic acid synthesis inhibitors, primary screen (AID 463173)
test parameters: S. aureus RN4220 wild type/DeltatarO growth, OD600, 18 h, hits give low values, screened at 18.75 µg/mL (by protocol)
In all, about 52,000 compounds went through this assay and about 4,300 (8.3%) were called active. The sample as a whole holds a higher share of actives than the screen did.
readout type: survival (%)

In [3]: df
Out[3]:
                                    compound  unit_info  readout_number
 0  Cc1ccccc1Cc1c(C)nc2c(-c3ccccc3)c(C)[nH]n2c1=O          %              -3
 1  Cc1cccc(CC(=O)NCCc2sc3nc(-c4ccc(F)cc4)nn3c2C)c1          %              91
 2  COc1cccc(-c2cc(C(F)(F)F)nc(NCCc3ccc(OC)c(OC)c3)n2)c1          %               4
 3  COc1ccc(S(=O)(=O)Cc2ccc(C(=O)N3CCN(c4cc(C)ccc4C)CC3)o2)cc1          %             130
 4  COc1ccc(-c2cc(C(F)(F)F)nc(SCC(=O)NCCc3ccc(OC)c(OC)c3)n2)cc1          %              59
 5           COc1ccc(OCC(=O)OC2CCN(C)CC2)cc1          %             112
 6  Cc1ccc(N(C(=O)c2ccco2)C(C(=O)NC2CCCC2)c2ccc(N(C)C)cc2)c(C)c1 (stereo unspecified)          %              93
 7  COc1ccc(CCNC(=O)Cn2nc(-c3ccc(Cl)cc3)ccc2=O)cc1OC          %              75
 8  Cc1cccc(N2CCN(C3(c4ccccc4)C(=O)c4ccccc4C3=O)CC2)c1C          %              79
 9  CCc1ccc(C(=O)CC2(O)C(=O)N(CCc3ccccc3)c3ccc(Br)cc32)cc1 (stereo unspecified)          %              52
10  Cc1ccc(C)c(NC(=O)CSc2ncc3c(n2)-c2ccc(Cl)cc2N(C)S3(=O)=O)c1          %              74
11  CCOC(=O)c1cnc2c(C)cc(C)cc2c1NCCc1ccc(OC)c(OC)c1          %              66
12  O=C(NCCn1cc(SCc2ccc(C(F)(F)F)cc2)c2ccccc21)c1ccccc1F          %              36
13  CC(C)c1ccc(C(=O)CC2(O)C(=O)N(CCc3ccccc3)c3ccc(Cl)cc32)cc1 (stereo unspecified)          %              33
14  COc1ccc(C(=O)NCCn2cc(SCc3cc(C)ccc3C)c3ccccc32)cc1          %              57
15  COc1ccc(CCNC(=O)CSc2nc(-c3ccc(F)cc3)cc(C(F)(F)F)n2)cc1OC          %              77
16  Cc1ccc(C(=O)CC2(O)C(=O)N(CCc3ccccc3)c3ccc(Cl)cc32)cc1 (stereo unspecified)          %              17
17  COc1ccc(C(=O)NCCn2cc(SCc3cccc(F)c3)c3ccccc32)cc1OC          %              52
18  COc1ccc(OC)c(-c2noc(N3CCN(c4ccc(C(C)=O)cc4)CC3)n2)c1          %             134
19  O=C(CSc1cn(CC(=O)N2CCCCCC2)c2ccccc12)Nc1ccccc1F          %              77
20  CCc1ccccc1NC(=O)C1CCC(CNS(=O)(=O)c2ccc3c(c2)CC(C)N3C(C)=O)CC1 (stereo unspecified)          %              91
21  CCN1CC=C2C(C#N)=C(N)C(C#N)(C#N)C(C)C2C1 (stereo unspecified)          %              80
22  CC(C)N1CC(C(=O)Nc2ccccc2)CC1=O (stereo unspecified)          %              73
23  CCOc1ccc(N2CC(NC(=O)Cc3cccs3)CC2=O)cc1 (stereo unspecified)          %              73
24  COc1ccc(CCNc2nc(-c3ccccc3OC)cc(C(F)(F)F)n2)cc1OC          %              -8
25  Fc1ccc(-n2ncc3c(N4CCC(Cc5ccccc5)CC4)ncnc32)cc1          %              90
26  c1ccc(Cc2nnc(SCc3nc(-c4cccs4)no3)n2-c2ccccc2)cc1          %              56
27  O=c1c2oc3ccccc3c2n(Cc2ccc(Cl)cc2)c(=O)n1Cc1ccc2c(c1)OCO2          %              66
28  O=C(NC1CCCC1)C(c1ccccc1)N(C(=O)c1ccco1)C1CCCC1 (stereo unspecified)          %              79
29  Cc1cccc(-c2nc(SCCCOc3ccc(Cl)c(C)c3)n3[nH]c(=O)cc3n2)c1          %              72
30  O=C(Nc1ccccc1C(=O)OCc1cc(=O)n2c3c(sc2n1)CCCC3)c1ccc(F)cc1          %             106
31  O=C(CSc1cn(CCNC(=O)c2ccccc2F)c2ccccc12)Nc1ccccc1F          %              80
32  Cc1ccc(C(C(=O)NC2CCCCC2)N(C)Cc2ccccc2)cc1 (stereo unspecified)          %              -3
33  O=C(CSc1cn(CCNC(=O)c2cccc(C(F)(F)F)c2)c2ccccc12)Nc1ccc2c(c1)OCCO2          %              87
34  Cc1ccccc1CNC(=O)CN1C(=O)C2CCCCN2c2ccc(C(=O)N3CCCC3)cc21 (stereo unspecified)          %              76
35  Fc1cccc(NCc2ccccc2-c2nnc(-c3ccccc3Cl)o2)c1          %             110
36  CCOC(=O)c1cnc2c(C)cc(Cl)cc2c1NCCc1ccc(OC)c(OC)c1          %              31
37  COc1ccc(CCNc2nc(-c3ccc(Cl)cc3)cc(C(F)(F)F)n2)cc1OC          %               8
38  Cc1cccc(C)c1Nc1c(-c2ccccc2F)nc2cccc(C)n12          %               6
39  O=C(CSc1cn(CC(=O)N2CCCCC2)c2ccccc12)Nc1ccccc1F          %              70
40  COc1ccc(CCNC(=O)C2CCN(c3nc4ccccc4nc3C(F)(F)F)CC2)cc1OC          %              92

Origin of the recorded values: PubChem BioAssay AID463173
